experimental-system: Focal adhesion kinase 1 (Homo sapiens)
assay-comment: PTK2 protein binding on printed compound slides – biochemical, small-molecule microarray, 635/667 nm fluorescence, BSA, DTT, primary screen (AID 1130);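 further: composite of spot emission at 667 nm and signal to noise over triplicate slides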
particulars: 635 nm fluorescence, higher = more signal
reported-metric: composite z-score

>>> readout_value("[N-]=[N+]=NCc1ccccc1C[C@@]1(C(=O)NCc2ccccc2)N=C(c2ccc(OCCCO)cc2)O[C@@H]1c1ccccc1CN=[N+]=[N-]")
0.96
>>> readout_value("CN(C)CCCC[C@@H]1NC(=O)[C@@H]2C[C@H](C(=O)NCCCCCN)[C@H](c3ccc(O)cc3)N2C1=O")
0.91
>>> readout_value("O=C1OCCC=C[C@H]2OC34C=CCN(CCN5CCOCC5)C(=O)[C@H]3N(CCO)C(=O)[C@@H]4C12 (some centres not stated)")
-0.379
>>> readout_value("Cc1ccc(S[C@]2(C(=O)NCC(F)(F)F)CC(=O)N(C3Cc4ccccc4C3)[C@@H]2c2ccc(CO)cc2I)cc1")
-0.493
>>> readout_value("O=C1O[C@H](c2ccccc2)[C@H](c2ccccc2)N2[C@H]1[C@@H](C(=O)Nc1nc3ccccc3s1)[C@]1(C(=O)Nc3ccc(C#CC4=CCCCC4)cc31)[C@H]2c1ccc(OCCO)cc1")
0.148
>>> readout_value("C=CCN1C(=O)[C@@]2(O[C@@H](CCO)[C@H]([Si](C)(C)c3ccc(OC)cc3)[C@H]2C)c2cc(N3C(=O)COc4ccccc43)ccc21")
0.346
>>> readout_value("O[C@@H](Cc1ccccc1)[C@@H](/C=C/c1ccccc1)NCc1ccccc1Br")
-0.716
